- EXPERIMENT: Cytotoxicity against human SH-SY5Y cells assessed as cell viability at 30 uM after 24 hrs by MTT assay relative to control
- Type: cell-based
- RECORDED CONDITIONS: read-out: Activity
Overview of reported viability at 24 h, 30 µM across a group of compounds:
// units = %; emit number, no label

# SAMPLE SMILES, U, viability at 24 h, 30 µM
records = [
    ("COc1ccc(S(=O)(=O)n2cc(-c3ccnc(N)n3)c3cc(Br)ccc32)cc1", "%", 99),
    ("Nc1nccc(-c2cn(CN3C(=O)c4ccccc4C3=O)c3ccccc23)n1", "%", 101),
    ("Cc1c(C)c(C)c(S(=O)(=O)n2cc(-c3ccnc(N)n3)c3ccccc32)c(C)c1C", "%", 49),
]

Switching to the query record.
[ask] Which viability at 24 h, 30 µM reading was recorded for the compound `Nc1nccc(-c2cn(S(=O)(=O)c3ccc(F)cc3F)c3ccccc23)n1` ?
[reply] 99.1
